meta.source: the supplement of paper PMC7156485

System: TDF;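 further: TDF is a line of transformed human dermal fibroblasts of mesenchymal origin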
Assay: H1.0 immunofluorescence intensity relative to DMSO (% of DMSO); higher = stronger H1.0 induction, active = 120 or more
Conditions: concentration: 10 µM; 24 h
So basically: H1.0 immunofluorescence intensity at 100 or higher? That is true. Lower than 100? That is false.

See these solved cases before continuing.
CC(C)CC(NC(=O)C(O)C(N)Cc1ccccc1)C(=O)O.Cl (stereo not given) [Bestatin hydrochloride]    false
CCCCCC=CCC1OC1C=CC(O)CC=CCCCC(=O)O (stereo not given)    false
CCN(CC)C(=O)C(C#N)=Cc1cc(O)c(O)c([N+](=O)[O-])c1    false
CN(C)c1ccc(O)c2c1CC1CC3C(N(C)C)C(=O)C(C(N)=O)=C(O)C3(O)C(=O)C1=C2O (stereo not given)    true

Now, please, on to the next molecule.
**Q:** Textbook exercise: given the entry FC(F)(F)c1cc(NC(=S)Nc2ccc(Br)cc2-c2nn[nH]n2)cc(C(F)(F)F)c1 , state whether its H1.0 immunofluorescence intensity is greater than or equal to 100.
**A:** false
